src = patent US12048734B2

- measurement protocol: 8-week GLP repeat-dose toxicity study, 30-minute IV infusion, rats
- Assay type: in vivo
- recorded conditions: rat, in vivo; rats; once weekly for 8 weeks, 30-minute IV infusion; read-out: no observable adverse effect level (NOAEL)

| smiles string | unit of measure | NOAEL |
| --- | --- | --- |
| CSCC[C@H](NC(=O)[C@@H](NC(=O)[C@H](Cc1ccc(O)cc1)NC(=O)[C@H](Cc1ccc(O)cc1)NC(=O)CNC(=O)[C@H](CCCCN)NC(=O)[C@H](CCCCN)NC(=O)[C@H](C)NC(=O)[C@H](Cc1c[nH]c2ccccc12)NC(=O)[C@H](CCC(N)=O)NC(=O)[C@H](CC(C)C)NC(=O)[C@@H](N)C(C)C)[C@@H](C)O)C(=O)N[C@@H](CCCCN)C(=O)N[C@@H](CO)C(=O)N[C@@H](CC(N)=O)C(=O)O | mg/kg | 200 |

----------
- measurement protocol: 8-week GLP repeat-dose toxicity study, 30-minute IV infusion, dogs
- Assay type: in vivo
- recorded conditions: dog, in vivo; dogs; infusion reaction; once weekly for 8 weeks, 30-minute IV infusion; read-out: no observable adverse effect level (NOAEL)
experimental endpoint: NOAEL (mg/kg)

| smiles string | experimental endpoint | unit of measure | value reported |
| --- | --- | --- | --- |
| CSCC[C@H](NC(=O)[C@@H](NC(=O)[C@H](Cc1ccc(O)cc1)NC(=O)[C@H](Cc1ccc(O)cc1)NC(=O)CNC(=O)[C@H](CCCCN)NC(=O)[C@H](CCCCN)NC(=O)[C@H](C)NC(=O)[C@H](Cc1c[nH]c2ccccc12)NC(=O)[C@H](CCC(N)=O)NC(=O)[C@H](CC(C)C)NC(=O)[C@@H](N)C(C)C)[C@@H](C)O)C(=O)N[C@@H](CCCCN)C(=O)N[C@@H](CO)C(=O)N[C@@H](CC(N)=O)C(=O)O | NOAEL | mg/kg | 10 |
